# tested on: Integrin alpha-4/beta-1 (Homo sapiens, UniProt P05556+P13612)
# Sequence (P05556 whole entry): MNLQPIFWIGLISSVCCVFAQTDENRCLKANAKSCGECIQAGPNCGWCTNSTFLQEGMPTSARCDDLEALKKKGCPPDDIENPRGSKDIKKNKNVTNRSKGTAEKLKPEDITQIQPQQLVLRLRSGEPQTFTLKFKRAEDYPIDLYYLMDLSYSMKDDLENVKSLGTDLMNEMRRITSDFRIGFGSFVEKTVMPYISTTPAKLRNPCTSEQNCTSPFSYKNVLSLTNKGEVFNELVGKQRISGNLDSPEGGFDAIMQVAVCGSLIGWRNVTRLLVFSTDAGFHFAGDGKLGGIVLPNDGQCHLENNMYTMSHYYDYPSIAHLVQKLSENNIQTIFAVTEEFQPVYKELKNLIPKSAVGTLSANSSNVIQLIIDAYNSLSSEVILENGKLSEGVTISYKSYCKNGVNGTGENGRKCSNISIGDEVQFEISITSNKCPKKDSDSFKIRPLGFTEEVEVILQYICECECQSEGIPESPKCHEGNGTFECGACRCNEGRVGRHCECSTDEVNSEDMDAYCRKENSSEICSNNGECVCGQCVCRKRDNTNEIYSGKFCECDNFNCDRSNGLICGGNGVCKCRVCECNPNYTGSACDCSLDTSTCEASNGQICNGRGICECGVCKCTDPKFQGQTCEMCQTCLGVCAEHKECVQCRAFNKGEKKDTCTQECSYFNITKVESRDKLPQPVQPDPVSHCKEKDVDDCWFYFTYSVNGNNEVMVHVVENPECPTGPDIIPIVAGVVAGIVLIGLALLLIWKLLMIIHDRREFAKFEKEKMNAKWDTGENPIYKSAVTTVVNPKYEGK
# Sequence (P13612 whole entry): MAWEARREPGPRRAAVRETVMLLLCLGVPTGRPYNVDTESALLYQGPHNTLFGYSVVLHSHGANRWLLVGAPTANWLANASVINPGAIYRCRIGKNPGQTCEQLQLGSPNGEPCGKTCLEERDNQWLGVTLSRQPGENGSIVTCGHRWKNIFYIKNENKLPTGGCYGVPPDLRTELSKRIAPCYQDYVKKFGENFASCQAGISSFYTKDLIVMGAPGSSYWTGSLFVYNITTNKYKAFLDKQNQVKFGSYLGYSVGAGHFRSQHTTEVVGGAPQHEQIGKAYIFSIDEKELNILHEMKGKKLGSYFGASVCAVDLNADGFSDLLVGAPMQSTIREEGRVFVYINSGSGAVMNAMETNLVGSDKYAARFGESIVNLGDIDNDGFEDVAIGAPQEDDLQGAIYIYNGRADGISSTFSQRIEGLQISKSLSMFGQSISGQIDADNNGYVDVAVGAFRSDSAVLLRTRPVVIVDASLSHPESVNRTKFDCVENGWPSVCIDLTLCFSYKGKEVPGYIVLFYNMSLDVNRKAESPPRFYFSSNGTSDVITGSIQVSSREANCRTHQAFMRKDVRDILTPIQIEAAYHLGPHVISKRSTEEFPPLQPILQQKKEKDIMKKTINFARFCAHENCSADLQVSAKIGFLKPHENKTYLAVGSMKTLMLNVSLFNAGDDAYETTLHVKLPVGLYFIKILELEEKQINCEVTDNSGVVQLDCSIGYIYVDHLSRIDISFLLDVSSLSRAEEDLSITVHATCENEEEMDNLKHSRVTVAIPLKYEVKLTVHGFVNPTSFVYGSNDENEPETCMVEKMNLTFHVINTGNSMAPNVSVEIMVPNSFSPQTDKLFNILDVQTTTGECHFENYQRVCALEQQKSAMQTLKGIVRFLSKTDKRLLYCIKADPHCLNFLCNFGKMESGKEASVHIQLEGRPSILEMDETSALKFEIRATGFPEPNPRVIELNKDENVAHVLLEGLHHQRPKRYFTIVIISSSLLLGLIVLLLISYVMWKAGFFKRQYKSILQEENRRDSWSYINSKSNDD
# method: Inhibition of alpha4-beta1 (very late) antigen binding with VCAM-1 immunoglobulin
# Type: protein-complex assay
measure: IC50 (nM)
Give your result in nM as a bare value.

Reported IC50 of COc1cccc(OC)c1-c1ccc(C[C@H](NC(=O)[C@@]2(c3cccc(N)c3)CCCO2)C(=O)O)cc1 : 0.92

What the record says about COCCC[C@]1(C(=O)N[C@@H](Cc2ccc(-c3c(OC)cccc3OC)cc2)C(=O)O)CCCO1 : IC50 is 0.35

Noted for COc1cccc(OC)c1-c1ccc(C[C@H](NC(=O)[C@]2(C)OC(C)CC2N)C(=O)O)cc1 (stereo not given in full) : its IC50 reads 2.6

For this molecule ( COc1ccccc1-c1ccc(C[C@H](NC(=O)[C@@]2(C(=O)N3CCCC3)CCCO2)C(=O)O)cc1 ), measured IC50 is 1.33

// COc1cccc(OC)c1-c1ccc(C[C@H](NC(=O)[C@@]2(C(=O)C(C)C)CCCO2)C(=O)O)cc1 : IC50 value = 0.67

Form field IC50, entry CCOC(=O)[C@]1(C(=O)N[C@@H](Cc2ccc(-c3ccccc3OC)cc2)C(=O)O)CCCO1 : 4.06

Sample COc1cccc(OC)c1-c1ccc(C[C@H](NC(=O)[C@@]2(c3ncc(C)s3)CCCO2)C(=O)O)cc1 ; IC50 observed: 0.31

Input COc1cccc(OC)c1-c1ccc(C[C@H](NC(=O)[C@@]2(CCCN(C)C)CCCO2)C(=O)O)cc1 . Output IC50: 9.18

Item: COc1ccccc1-c1ccc(C[C@H](NC(=O)[C@@]2(c3ccc(Cl)cc3)CCCO2)C(=O)O)cc1 | IC50: 4.09

Just so you know, measured IC50 for COc1cccc(OC)c1-c1ccc(C[C@H](NC(=O)[C@@]2(CCO)CCCO2)C(=O)O)cc1 came out at 1.56

====

For each of the molecules below, state its Ratio.
# tested on: Integrin alpha-4/beta-7 (Homo sapiens) (UniProt P13612+P26010)
# method: Selectivity for alpha4-beta7 to that of alpha4-beta1
# Assay type: protein-complex assay
Respond using a number only.

Reported Ratio for COc1cccc(OC)c1-c1ccc(C[C@H](NC(=O)[C@@]2(C(C)C)CCCO2)C(=O)O)cc1 was 9

Input COc1cccc(OC)c1-c1ccc(C[C@H](NC(=O)[C@@]2(CCCN(C)C)CCCO2)C(=O)O)cc1 . Output Ratio: 7

Lab note: measured Ratio of COc1ccccc1-c1ccc(C[C@H](NC(=O)[C@@]2(c3ccc(Br)cc3)CCCO2)C(=O)O)cc1 was 64

The molecule listed as COCC[C@]1(C(=O)N[C@@H](Cc2ccc(-c3c(OC)cccc3OC)cc2)C(=O)O)CCCO1 has a reported Ratio of 40

====

# tested on: Integrin alpha-4/beta-7 (Homo sapiens) (UniProt P13612+P26010)
# method: Selectivity for alpha4-beta7 to that of alpha4-beta1
# Type: protein-complex assay
measure: Ratio

Per the record, COc1cccc(OC)c1-c1ccc(C[C@H](NC(=O)[C@@]2(C)CCCO2)C(=O)O)cc1 has Ratio of 21

Entry COc1ccccc1-c1ccc(C[C@H](NC(=O)[C@@]2(c3ccc(C(F)(F)F)cc3)CCCO2)C(=O)O)cc1 — recorded Ratio = 95

Entry under test: COc1cccc(OC)c1-c1ccc(C[C@H](NC(=O)[C@@]2(CCO)CCCO2)C(=O)O)cc1 . Its Ratio was 10

The reported Ratio of the molecule COc1ccccc1-c1ccc(C[C@H](NC(=O)[C@@]2(c3ccccc3)CCCO2)C(=O)O)cc1 was 26

Entry under test: COc1ccccc1-c1ccc(C[C@H](NC(=O)[C@@]2(C)CCCO2)C(=O)O)cc1 . Its Ratio was 12

GET /value?item= COCCCC[C@]1(C(=O)N[C@@H](Cc2ccc(-c3c(OC)cccc3OC)cc2)C(=O)O)CCCO1 &field=Ratio returns 35

In plain terms, COc1ccccc1-c1ccc(C[C@H](NC(=O)[C@@]2(c3ccc(C(C)(C)C)cc3)CCCO2)C(=O)O)cc1 has a documented Ratio of 55

For record COc1ccccc1-c1ccc(C[C@H](NC(=O)[C@@]2(c3ccc(C)c(C)c3)CCCO2)C(=O)O)cc1 the listed Ratio is 60

Data point: COc1cccc(OC)c1-c1ccc(C[C@H](NC(=O)[C@@]2(CCCO)CCCO2)C(=O)O)cc1 ; Ratio = 17

response.value for COc1ccccc1-c1ccc(C[C@H](NC(=O)[C@@]2(c3cccc(C(F)(F)F)c3)CCCO2)C(=O)O)cc1 (field: Ratio) = 70

Ratio measured on COc1ccccc1-c1ccc(C[C@H](NC(=O)[C@@]2(c3ccc(Cl)cc3)CCCO2)C(=O)O)cc1 = 67

Looking up COc1cccc(OC)c1-c1ccc(C[C@H](NC(=O)[C@@]2(C(=O)C(C)C)CCCO2)C(=O)O)cc1 , I see its Ratio listed as 22

Item: COc1ccc(CNC2CC(C)O[C@@]2(C)C(=O)N[C@@H](Cc2ccc(-c3c(OC)cccc3OC)cc2)C(=O)O)cc1 (some centres not stated) | Ratio: 225

So for COc1cccc(OC)c1-c1ccc(C[C@H](NC(=O)[C@]2(C)OC(C)CC2=O)C(=O)O)cc1 (some centres not stated) , the logged Ratio turned out to be 35

Looking up COc1cccc(OC)c1-c1ccc(C[C@H](NC(=O)[C@]2(C)OC(C)CC2N)C(=O)O)cc1 (some centres not stated) , I found its Ratio recorded as 57

// recorded Ratio for COCCC[C@]1(C(=O)N[C@@H](Cc2ccc(-c3c(OC)cccc3OC)cc2)C(=O)O)CCCO1 : 22

# molecule COc1ccccc1-c1ccc(C[C@H](NC(=O)[C@@]2(C(=O)N3CCOCC3)CCCO2)C(=O)O)cc1 ; its Ratio = 16

====

# method: Plasma clearance determined
# Assay type: ADME, organism-based
# condition details: read-out: Clp
measure: clearance (mL/min/kg)
Kindly provide the numeric value in mL/min/kg only, without the unit symbol.

Note to self: clearance recorded for COc1cccc(OC)c1-c1ccc(C[C@H](NC(=O)[C@@]2(C)CCCO2)C(=O)O)cc1 was 2.9

The reported value for COCCC[C@]1(C(=O)N[C@@H](Cc2ccc(-c3c(OC)cccc3OC)cc2)C(=O)O)CCCO1 in terms of clearance is 81.8

====

# tested on: Integrin alpha-4/beta-7 (Homo sapiens, UniProt P13612+P26010)
# Sequence (P26010 whole entry, one chain of several): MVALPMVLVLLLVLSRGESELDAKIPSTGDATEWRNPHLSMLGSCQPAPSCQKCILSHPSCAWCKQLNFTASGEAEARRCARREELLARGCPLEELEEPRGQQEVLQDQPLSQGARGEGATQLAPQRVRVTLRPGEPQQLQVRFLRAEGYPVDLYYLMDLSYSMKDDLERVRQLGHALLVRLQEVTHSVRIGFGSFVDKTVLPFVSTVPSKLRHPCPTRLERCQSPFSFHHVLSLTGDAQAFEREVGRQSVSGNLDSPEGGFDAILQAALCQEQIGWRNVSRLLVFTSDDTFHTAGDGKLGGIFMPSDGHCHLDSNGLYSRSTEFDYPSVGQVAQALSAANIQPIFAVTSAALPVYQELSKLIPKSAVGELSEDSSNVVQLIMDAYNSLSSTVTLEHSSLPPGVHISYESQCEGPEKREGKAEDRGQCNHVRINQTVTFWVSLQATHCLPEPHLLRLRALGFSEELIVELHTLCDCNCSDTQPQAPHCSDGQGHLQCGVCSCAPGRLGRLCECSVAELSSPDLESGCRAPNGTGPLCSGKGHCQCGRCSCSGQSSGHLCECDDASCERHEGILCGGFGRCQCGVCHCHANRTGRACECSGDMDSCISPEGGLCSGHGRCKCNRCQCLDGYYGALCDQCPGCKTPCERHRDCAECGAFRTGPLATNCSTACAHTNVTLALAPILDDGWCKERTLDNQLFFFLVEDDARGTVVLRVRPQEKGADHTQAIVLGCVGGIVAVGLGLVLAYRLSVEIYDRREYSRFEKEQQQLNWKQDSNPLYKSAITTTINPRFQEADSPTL
# method: Inhibition of alpha4-beta7 integrin binding to MAdCAM immunoglobulin
# Format: protein-complex assay
measure: IC50 (nM)
API: value field is a number in nM; no unit string.

The recorded IC50 for COc1ccccc1-c1ccc(C[C@H](NC(=O)[C@@]2(CC(=O)N3CCOCC3)CCCO2)C(=O)O)cc1 is 11

====

# tested on: Integrin alpha-4/beta-7 (Homo sapiens, UniProt P13612+P26010)
# method: Inhibition of alpha4-beta7 antigen with MAdCAM immunoglobulin
# Assay type: protein-complex assay
measure: IC50 (µM)
// units = µM; emit number, no label

Briefly, IC50 measured for COc1ccccc1-c1ccc(C[C@H](NC(=O)[C@@]2(C(=O)N3CCOCC3)CCCO2)C(=O)O)cc1 : 0.00849

Form: molecule = COc1cccc(OC)c1-c1ccc(C[C@H](NC(=O)[C@]2(C)OC(C)CC2=O)C(=O)O)cc1 (stereo partly drawn) ; IC50 = 0.0245

Just so you know, measured IC50 for CCOC(=O)[C@]1(C(=O)N[C@@H](Cc2ccc(-c3ccccc3OC)cc2)C(=O)O)CCCO1 came out at 0.0511

Per the records, this molecule ( COCC[C@]1(C(=O)N[C@@H](Cc2ccc(-c3c(OC)cccc3OC)cc2)C(=O)O)CCCO1 ) has IC50 equal to 0.0161

According to the records, this molecule COc1cccc(OC)c1-c1ccc(C[C@H](NC(=O)[C@@]2(CCCO)CCCO2)C(=O)O)cc1 displays IC50 of 0.0353

Lab note: COc1cccc(OC)c1-c1ccc(C[C@H](NC(=O)[C@@]2(CCCN(C)C)CCCO2)C(=O)O)cc1 gave IC50 of 0.067

Field IC50 (entry COc1ccccc1-c1ccc(C[C@H](NC(=O)[C@@]2(c3ccc(Cl)cc3)CCCO2)C(=O)O)cc1 ) reads 0.275

The value of IC50 measured for the molecule COc1ccccc1-c1ccc(C[C@H](NC(=O)[C@@]2(c3ccc(C(F)(F)F)cc3)CCCO2)C(=O)O)cc1 turned out to be 0.504

====

# tested on: Integrin alpha-4/beta-7 (Homo sapiens, UniProt P13612+P26010)
# method: Inhibition of alpha4-beta7 antigen with MAdCAM immunoglobulin
# Assay type: protein-complex assay
measure: IC50 (nM)
Hi! Could you send only the number? It should be in nM, unit omitted.

The recorded IC50 for COc1cccc(OC)c1-c1ccc(C[C@H](NC(=O)[C@@]2(c3ccc(Cl)cc3)CCCO2)C(=O)O)cc1 is 52.2

GET /value?item= COc1cccc(OC)c1-c1ccc(C[C@H](NC(=O)[C@@]2(c3cccc(N)c3)CCCO2)C(=O)O)cc1 &field=IC50 returns 26.6

IC50 measured on COc1cccc(OC)c1-c1ccc(C[C@H](NC(=O)[C@]2(C)OC(C)CC2N)C(=O)O)cc1 (stereo partly drawn) = 149

The molecule listed as COc1cccc(OC)c1-c1ccc(C[C@H](NC(=O)[C@@]2(CCO)CCCO2)C(=O)O)cc1 shows IC50 equal to 16.3

For reference, reported IC50 for COc1cccc(OC)c1-c1ccc(C[C@H](NC(=O)[C@@]2(CC(C)C)CCCO2)C(=O)O)cc1 stands at 22.3

# molecule COc1cccc(OC)c1-c1ccc(C[C@H](NC(=O)[C@@]2(CCN(C)C)CCCO2)C(=O)O)cc1 ; its IC50 = 80

Given item COc1ccccc1-c1ccc(C[C@H](NC(=O)[C@@]2(C(=O)N3CCCC3)CCCO2)C(=O)O)cc1 , the value recorded as its IC50 is 22.9

The reported value for COc1cccc(OC)c1-c1ccc(C[C@H](NC(=O)[C@@]2(c3cccc([N+](=O)[O-])c3)CCCO2)C(=O)O)cc1 in terms of IC50 is 19.6
